biological target: HA of ca A/New Caledonia/20/99 (H1N1) (influenza A virus); experiment: cell-based or functional assay
readout type: Neutralization IC50, H1-Ncal99 (µg/mL)

- Antibody 3 (antibody, V domains shown) VH: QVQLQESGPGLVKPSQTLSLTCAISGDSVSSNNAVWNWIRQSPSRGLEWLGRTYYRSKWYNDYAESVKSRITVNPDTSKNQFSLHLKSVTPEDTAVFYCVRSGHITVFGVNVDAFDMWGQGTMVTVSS VL: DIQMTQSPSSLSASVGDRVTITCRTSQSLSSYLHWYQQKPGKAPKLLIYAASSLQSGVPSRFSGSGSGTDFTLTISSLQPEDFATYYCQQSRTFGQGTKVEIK: 1.16
- Antibody 14 (antibody, V domains shown) VH: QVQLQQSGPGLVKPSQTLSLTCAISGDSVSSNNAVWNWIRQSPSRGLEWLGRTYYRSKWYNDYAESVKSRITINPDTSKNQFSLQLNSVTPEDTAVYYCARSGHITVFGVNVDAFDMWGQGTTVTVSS VL: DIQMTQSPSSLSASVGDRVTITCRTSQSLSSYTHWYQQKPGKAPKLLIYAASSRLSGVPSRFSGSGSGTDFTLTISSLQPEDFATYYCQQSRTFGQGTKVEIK: 0.67
- Antibody 13 (antibody, V domains shown) VH: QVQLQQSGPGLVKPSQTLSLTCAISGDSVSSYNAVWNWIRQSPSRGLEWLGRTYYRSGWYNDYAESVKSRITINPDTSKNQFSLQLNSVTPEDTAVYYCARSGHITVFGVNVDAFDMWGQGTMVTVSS VL: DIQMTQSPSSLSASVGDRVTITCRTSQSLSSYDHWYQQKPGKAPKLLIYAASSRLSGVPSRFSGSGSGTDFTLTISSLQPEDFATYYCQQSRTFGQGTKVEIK: 0.77
